Record form. Attribute: pKd. Fill in for each entry.
Target: T1, PUF4 RNA-binding domain (Saccharomyces cerevisiae, UniProt P25339 537-888)
T1 sequence: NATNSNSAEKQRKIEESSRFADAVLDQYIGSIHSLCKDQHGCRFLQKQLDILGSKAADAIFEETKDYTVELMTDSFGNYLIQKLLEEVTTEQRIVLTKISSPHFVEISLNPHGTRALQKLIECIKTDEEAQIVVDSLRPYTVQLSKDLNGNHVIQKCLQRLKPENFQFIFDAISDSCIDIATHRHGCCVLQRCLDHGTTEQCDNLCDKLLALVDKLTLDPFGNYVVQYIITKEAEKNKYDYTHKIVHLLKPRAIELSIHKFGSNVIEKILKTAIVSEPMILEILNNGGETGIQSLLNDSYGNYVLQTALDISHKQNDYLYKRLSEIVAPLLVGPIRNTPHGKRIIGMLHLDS
Test: Mg; RNA-MaP; 20 mM Na-HEPES pH 7.4, 30 mM KOAc, 0.75 mM MgCl2, 0.1% Tween-20, 5% glycerol, 0.1 mg/mL BSA, 2 mM DTT; 25 C; 0.0125-409.6 nM protein
Details: tags: N-His6-TEV cleaved; C-SNAP kept, Cy3B-labelled; label: tethered on chip by stalled RNA polymerase
Answers are plain numbers, as −log10 of the molar value.

Worked cases, answers included:
binder	pKd
UCUCUUGUACACUAUUAUUUCUCUU (ssRNA) [Id_ii_S1_P4E.4_K4.3_C4.2_[C-2G]_H4.3_A4.1_F4.1_T4.2_[G10T]]	9.08
Ic_S4_P4E.1_K4.1_C4.1_H4.1_A4.1_[T5C]_[A6G]_[T7C]_F4.1_[T8A]_T4.1 (ssRNA) RNA: UUUGACAACUGAUCGUUCUUUCUUGUACGCAAUUCUUUCUCGAUCAGUUGUCUUU	6.18
Ie_S4_P5E.1_K5.1_C5.1_H5.1_[+3C]_A5.1_F5.1_T5.1 (ssRNA) RNA: UUUGACAACUGAUCGUUCUUUCUUGUCAUUAUUAUUCUUUCUCGAUCAGUUGUCUUU	7.47
Ia_S2_P5E.1_K5.1_C5.1_H5.1_[G2A]_A5.1_F5.1_T5.1 (ssRNA) RNA: UUUGAUUAAUAUGAUAUCGUUCUUUCUUAUAUUAUUAUUCUUUCUCGAUAUCAUAUUAAUCUUU	6.57
Ib_S2_P3E.1_K3.1_C3.1_H3.1_A3.1_[A6T]_F3.1_[A8T]_T3.1 (ssRNA) RNA: UUUGAUUAAUAUGAUAUCGUUCUUUCUUGUAUUUUUUCUUUCUCGAUAUCAUAUUAAUCUUU	7.98

Your task in this section: give pKd for each listed record.
1. Id_ii_S2_P5E.3_K5.2_C5.2_[C-2A]_[T-1A]_H5.2_A5.1_F5.1_T5.2_[T11C]_[A12C] (ssRNA) RNA: UUUGAUUAAUAUGAUAUCGUUCUUUCUAAUAUAUUAUUACCUUCUUUCUCGAUAUCAUAUUAAUCUUU
2. Ic_S4_P3E.1_K3.1_C3.1_H3.1_A3.1_[A6C]_F3.1_T3.1 (ssRNA) RNA: UUUGACAACUGAUCGUUCUUUCUUGUAUCUAUUCUUUCUCGAUCAGUUGUCUUU
3. UCUCUUCCUUAUAUAUAUAUCUCUU (ssRNA) [Id_iii_S1_P3E.6_K3.2_C3.3_[T-3C]_H3.2_A3.1_F3.1_T3.2]
4. UCUCUUGCUGUAUAUAUAUCUCUU (ssRNA) [Id_ii_S1_P3E.2_K3.1_C3.2_[C-2G]_[T-1C]_H3.1_A3.1_F3.1_T3.2]
5. Ib_S2_P4E.1_K4.1_C4.1_H4.1_[A4G]_A4.1_[T7G]_F4.1_T4.1 (ssRNA) RNA: UUUGAUUAAUAUGAUAUCGUUCUUUCUUGUGUAGUAUUCUUUCUCGAUAUCAUAUUAAUCUUU
6. Ib_S2_P3E.1_K3.1_C3.1_H3.1_[T1G]_A3.1_[A6G]_F3.1_T3.1 (ssRNA) RNA: UUUGAUUAAUAUGAUAUCGUUCUUUCUGGUAUGUAUUCUUUCUCGAUAUCAUAUUAAUCUUU

a:
1. 6.30
2. 8.00
3. 6.44
4. 8.12
5. 8.29
6. 6.56

Your task in this section: give pKd for each listed record.
1. UCUCUUGCUGUAUAUUAUGUCUCUU (ssRNA) [Id_ii_S1_P4E.2_K4.1_C4.2_[C-2G]_[T-1C]_H4.1_A4.1_F4.1_T4.2_[G10T]_[T11G]]
2. UCUCUUUGUAUAUUCCUAUCUCUU (ssRNA) [Ie_S1_P4E.1_K4.1_C4.1_H4.1_A4.1_F4.1_[+8CCT]_T4.1]
3. UCUCUUCCUUGUAAUAUUAUAUCUCUU (ssRNA) [Id_iii_S1_P5E.8_K5.4_C5.3_[T-3C]_H5.1_A5.2_F5.1_T5.2]
4. UCUCUUACACACUAUAUAUCUCUU (ssRNA) [Id_i_S1_P3E.4_K3.3_C3.2_[C-2A]_[T-1C]_H3.3_A3.1_F3.1_T3.2]
5. Id_ii_S2_P4E.2_K4.1_C4.2_[T-1G]_H4.1_A4.1_F4.1_T4.2_[G10A]_[T11A] (ssRNA) RNA: UUUGAUUAAUAUGAUAUCGUUCUUUCUCGUGUAUAUUAAAUUCUUUCUCGAUAUCAUAUUAAUCUUU
6. Id_ii_S2_P3E.2_K3.1_C3.2_[C-2T]_H3.1_A3.1_F3.1_T3.2_[T9C]_[A10G] (ssRNA) RNA: UUUGAUUAAUAUGAUAUCGUUCUUUCUUUUGUAUAUACGUUCUUUCUCGAUAUCAUAUUAAUCUUU
7. Ic_S4_P4E.1_K4.1_C4.1_H4.1_A4.1_[T5C]_[A6C]_[T7C]_F4.1_[T8A]_[A9C]_T4.1 (ssRNA) RNA: UUUGACAACUGAUCGUUCUUUCUUGUACCCACUUCUUUCUCGAUCAGUUGUCUUU
8. Ib_S2_P4E.1_K4.1_C4.1_H4.1_A4.1_[A6T]_F4.1_[A9T]_T4.1 (ssRNA) RNA: UUUGAUUAAUAUGAUAUCGUUCUUUCUUGUAUUUUUUUCUUUCUCGAUAUCAUAUUAAUCUUU

a:
1: 8.65; 2: 8.09; 3: 8.07; 4: 6.00; 5: 9.31; 6: 8.43; 7: 5.96; 8: 8.01

q: What measured pKd goes with Ic_S2_P5E.1_K5.1_C5.1_H5.1_A5.1_[T5A]_[A7T]_F5.1_[T8A]_[T9C]_[A10G]_T5.1 (ssRNA) RNA: UUUGAUUAAUAUGAUAUCGUUCUUUCUUGUAAUUACGUUCUUUCUCGAUAUCAUAUUAAUCUUU ?
a: 6.12

# credit: paper PMC9352680
